assayTarget: AxCT mask27 EpCAM H90.2 L060 version 1
attributeMeasured: Percent cleavage (%)

1) Cathepsin G (protein) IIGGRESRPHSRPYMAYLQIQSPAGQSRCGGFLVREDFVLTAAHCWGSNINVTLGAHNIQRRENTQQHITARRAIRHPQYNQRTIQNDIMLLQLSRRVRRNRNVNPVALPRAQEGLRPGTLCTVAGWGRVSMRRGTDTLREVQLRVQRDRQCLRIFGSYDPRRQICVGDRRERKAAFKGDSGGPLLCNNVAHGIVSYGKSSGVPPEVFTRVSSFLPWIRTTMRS    0
2) MMP-12 (protein) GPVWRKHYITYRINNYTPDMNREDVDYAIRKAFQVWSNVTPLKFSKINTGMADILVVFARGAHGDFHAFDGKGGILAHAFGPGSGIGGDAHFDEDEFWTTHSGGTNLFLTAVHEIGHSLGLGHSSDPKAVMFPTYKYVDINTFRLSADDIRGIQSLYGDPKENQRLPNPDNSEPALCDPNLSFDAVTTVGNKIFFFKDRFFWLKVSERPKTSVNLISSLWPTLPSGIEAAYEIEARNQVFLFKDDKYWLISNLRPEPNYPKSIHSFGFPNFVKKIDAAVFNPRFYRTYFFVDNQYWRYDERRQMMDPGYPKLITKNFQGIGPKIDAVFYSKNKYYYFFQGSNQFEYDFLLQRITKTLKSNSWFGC    16
3) MMP-7 (protein) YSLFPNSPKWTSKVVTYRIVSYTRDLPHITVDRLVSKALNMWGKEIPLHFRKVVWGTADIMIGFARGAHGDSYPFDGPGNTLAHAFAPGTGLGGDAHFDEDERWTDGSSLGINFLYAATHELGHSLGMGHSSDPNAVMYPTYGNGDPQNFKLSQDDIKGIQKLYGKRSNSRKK    9
4) Matriptase (protein) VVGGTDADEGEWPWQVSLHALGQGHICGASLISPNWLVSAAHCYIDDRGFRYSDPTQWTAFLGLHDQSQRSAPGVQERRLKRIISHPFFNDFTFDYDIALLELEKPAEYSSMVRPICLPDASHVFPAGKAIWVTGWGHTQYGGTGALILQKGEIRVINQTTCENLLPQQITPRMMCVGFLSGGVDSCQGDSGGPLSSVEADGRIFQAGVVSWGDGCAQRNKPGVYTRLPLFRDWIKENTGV    92

Cited source: patent US20240336909
